target: human GLP1R (Homo sapiens, UniProt P43220); assay: Luciferase reporter assay, HEK293/CRE-Luc/hGLP1R (Example 17); format: cell-based; set-up: engineered to express full-length human GLP1R, cynomolgus GLP1R; expressed in transfected cells; host or cells: HEK293/CRE-Luc; settings: HEK293/CRE-Luc/hGLP1R; highest RLU / RLU of untreated wells
Sequence (P43220 24-463): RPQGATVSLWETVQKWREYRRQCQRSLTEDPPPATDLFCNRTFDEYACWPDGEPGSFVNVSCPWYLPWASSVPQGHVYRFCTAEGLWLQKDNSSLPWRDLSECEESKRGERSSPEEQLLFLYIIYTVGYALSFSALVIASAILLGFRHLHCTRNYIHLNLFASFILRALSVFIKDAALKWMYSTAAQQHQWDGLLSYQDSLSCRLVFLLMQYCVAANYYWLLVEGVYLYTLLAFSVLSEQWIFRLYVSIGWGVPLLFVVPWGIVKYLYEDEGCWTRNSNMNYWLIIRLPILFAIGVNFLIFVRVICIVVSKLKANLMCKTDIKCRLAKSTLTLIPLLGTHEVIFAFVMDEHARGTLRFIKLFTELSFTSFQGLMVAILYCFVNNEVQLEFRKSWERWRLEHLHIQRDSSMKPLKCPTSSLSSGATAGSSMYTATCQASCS
Where a SMILES comes first, the peptide text is derived from it. [ ]: non-standard residue; d: D form. The star is where a group is joined. Bip(2'-Et,4'-O(CH2)4NH2) = CCc1cc(OCCCCN)ccc1-c1ccc(C[C@H](N)C(=O)O)cc1; Malonyl(2,2-Me2,histaminyl) = CC(C)(C(=O)NCCc1cnc[nH]1)C(=O)*; Nva(5-(3,5-Me2Ph)) = Cc1cc(C)cc(CCC[C@H](N)C(=O)O)c1; Ala(1H-tetrazol-5-yl) = N[C@@H](Cc1nnn[nH]1)C(=O)O; αMePhe(2-F) = C[C@](N)(Cc1ccccc1F)C(=O)O; Aib = CC(C)(N)C(=O)O; NHPh = c1ccc(N*)cc1
metric-name: S/N
// return just the number, without any unit appended

INPUT: Which S/N value is on record for CCc1cc(OCCCCN)ccc1-c1ccc(C[C@H](NC(=O)[C@H](CC(=O)O)NC(=O)[C@H](CO)NC(=O)[C@@H](NC(=O)[C@](C)(Cc2ccccc2F)NC(=O)[C@@H](NC(=O)CNC(=O)[C@H](Cc2nn[nH]n2)NC(=O)[C@@H](N)CO)[C@@H](C)O)[C@@H](C)O)C(=O)N[C@@H](CCCc2cc(C)cc(C)c2)C(N)=O)cc1 [P7] (H-S[Ala(1H-tetrazol-5-yl)]GT[αMePhe(2-F)]TSD[Bip(2'-Et,4'-O(CH2)4NH2)][Nva(5-(3,5-Me2Ph))]-NH2) ?
OUTPUT: 48.4

INPUT: Which S/N value is on record for CCc1cc(OCCCCN)ccc1-c1ccc(C[C@H](NC(=O)[C@H](CC(=O)O)NC(=O)[C@H](CO)NC(=O)[C@@H](NC(=O)[C@](C)(Cc2ccccc2F)NC(=O)[C@@H](NC(=O)CNC(=O)[C@H](CCC(N)=O)NC(=O)C(C)(C)C(=O)NCCc2cnc[nH]2)[C@@H](C)O)[C@@H](C)O)C(=O)N[C@@H](CCCc2cc(C)cc(C)c2)C(N)=O)cc1 [P21] ?
OUTPUT: 58.8

INPUT: Which S/N value is on record for CCc1cc(OCCCCN)ccc1-c1ccc(C[C@H](NC(=O)[C@H](CC(=O)O)NC(=O)[C@H](CO)NC(=O)[C@@H](NC(=O)[C@](C)(Cc2ccccc2F)NC(=O)[C@@H](NC(=O)CNC(=O)[C@H](Cc2nn[nH]n2)NC(=O)C(C)(C)C(=O)NCCc2cnc[nH]2)[C@@H](C)O)[C@@H](C)O)C(=O)N[C@@H](CCCc2cc(C)cc(C)c2)C(=O)Nc2ccccc2)cc1 [P23] ({Malonyl(2,2-Me2,histaminyl)}-[Ala(1H-tetrazol-5-yl)]GT[αMePhe(2-F)]TSD[Bip(2'-Et,4'-O(CH2)4NH2)][Nva(5-(3,5-Me2Ph))]-NHPh) ?
OUTPUT: 57.1

INPUT: Which S/N value is on record for CCc1cc(OCCCCN)ccc1-c1ccc(C[C@H](NC(=O)[C@H](CC(=O)O)NC(=O)[C@H](CO)NC(=O)[C@@H](NC(=O)[C@](C)(Cc2ccccc2F)NC(=O)[C@@H](NC(=O)CNC(=O)[C@@H](N)CCC(N)=O)[C@@H](C)O)[C@@H](C)O)C(=O)N[C@@H](CCCc2cc(C)cc(C)c2)C(N)=O)cc1 [M2913] ?
OUTPUT: 3.2

INPUT: Which S/N value is on record for CCc1cc(OCCCCNC(=O)[C@H](CO)NC(=O)CNC(=O)CNC(=O)CNC(=O)CNC(=O)CCC(=O)N2Cc3ccccc3C#Cc3ccccc32)ccc1-c1ccc(C[C@H](NC(=O)[C@H](CC(=O)O)NC(=O)[C@H](CO)NC(=O)[C@@H](NC(=O)[C@](C)(Cc2ccccc2F)NC(=O)[C@@H](NC(=O)CNC(=O)[C@H](Cc2nn[nH]n2)NC(=O)C(C)(C)C(=O)NCCc2cnc[nH]2)[C@@H](C)O)[C@@H](C)O)C(=O)N[C@@H](CCCc2cc(C)cc(C)c2)C(=O)Nc2ccccc2)cc1 [LP15, DIBAC- suc-G4S- P23] ?
OUTPUT: 48.1

INPUT: Which S/N value is on record for CCc1cc(OCCCCN)ccc1-c1ccc(C[C@H](NC(=O)[C@H](CC(=O)O)NC(=O)[C@H](CO)NC(=O)[C@@H](NC(=O)[C@](C)(Cc2ccccc2F)NC(=O)[C@@H](NC(=O)CNC(=O)[C@H](Cc2nn[nH]n2)NC(=O)C(C)(C)NC(=O)[C@@H](N)Cc2ccc(O)cc2)[C@@H](C)O)[C@@H](C)O)C(=O)N[C@@H](CCCc2cc(C)cc(C)c2)C(N)=O)cc1 [P19] (H-Y[Aib][Ala(1H-tetrazol-5-yl)]GT[αMePhe(2-F)]TSD[Bip(2'-Et,4'-O(CH2)4NH2)][Nva(5-(3,5-Me2Ph))]-NH2) ?
OUTPUT: 78.5

INPUT: Which S/N value is on record for CCc1cc(OCCCCNC(=O)[C@H](CO)NC(=O)CNC(=O)CNC(=O)CNC(=O)CNC(=O)C(CO)NC(=O)CNC(=O)CNC(=O)CNC(=O)CN)ccc1-c1ccc(C[C@H](NC(=O)[C@H](CC(=O)O)NC(=O)[C@H](CO)NC(=O)[C@@H](NC(=O)[C@](C)(Cc2ccccc2F)NC(=O)[C@@H](NC(=O)CNC(=O)[C@H](Cc2nn[nH]n2)NC(=O)C(C)(C)C(=O)NCCc2cnc[nH]2)[C@@H](C)O)[C@@H](C)O)C(=O)N[C@@H](CCCc2cc(C)cc(C)c2)C(N)=O)cc1 (stereo partly drawn) [M2945] ?
OUTPUT: 71.8

INPUT: Which S/N value is on record for CCc1cc(OCCCCNC(=O)CNC(=O)CNC(=O)CNC(=O)CNC(=O)[C@H](CO)NC(=O)CCC(=O)N2Cc3ccccc3C#Cc3ccccc32)ccc1-c1ccc(C[C@H](NC(=O)[C@H](CC(=O)O)NC(=O)[C@H](CO)NC(=O)[C@@H](NC(=O)[C@](C)(Cc2ccccc2F)NC(=O)[C@@H](NC(=O)CNC(=O)[C@H](Cc2nn[nH]n2)NC(=O)C(C)(C)C(=O)NCCc2cnc[nH]2)[C@@H](C)O)[C@@H](C)O)C(=O)N[C@@H](CCCc2cc(C)cc(C)c2)C(N)=O)cc1 [LP7, DIBAC-suc-SG4-P9] ?
OUTPUT: 55.3

INPUT: Which S/N value is on record for CCc1cc(OC)ccc1-c1ccc(C[C@H](NC(=O)[C@H](CC(=O)O)NC(=O)[C@H](CO)NC(=O)C(NC(=O)[C@](C)(Cc2ccccc2F)NC(=O)[C@@H](NC(=O)CNC(=O)[C@H](Cc2nn[nH]n2)NC(=O)C(C)(C)C(=O)NCCc2cnc[nH]2)[C@@H](C)O)[C@@H](C)O)C(=O)N[C@@H](CCCc2ccc(OCCCCN)cc2)C(N)=O)cc1 (stereo in doubt) [P24] ?
OUTPUT: 65.0

All values here come from patent US20230330254A1.
